Catalogue of cell viability readings, one per entry.
Test system: SEM cells
assay text: cell viability relative to DMSO control; higher = less cytotoxic
experimental setup: HPLM + 10% dialyzed FBS; 48 h; 0.00234 µM

smiles text	measured on	cell viability (%)
C1Cc2[nH]nc(-c3nn[nH]n3)c2C1	SEM cells	101
CC#C[C@]1(O)CC[C@H]2[C@@H]/3CCC/4=C/C(=O)CCC4=C3[C@H](C[C@]12C)C5=CC=C(C=C5)N(C)C	SEM cells	74.8
COc1cc2ncnc(-n3nc(-c4ccccn4)nc3N)c2cc1OC	SEM cells	95.7
COc1nc(-c2ccc3c(c2)OCO3)n(-c2ccc(NC(=O)CSc3ccccc3)cc2)n1	SEM cells	97.1
Nc1ccccc1NC(=O)c1ccc(CNc2nccc(-c3cccnc3)n2)cc1	SEM cells	101
Cc1c[nH]c(/C=C2\C(=O)Nc3ccccc32)c1CCC(=O)O	SEM cells	107
CCC[C@@H]1C[C@@H](C(=O)N[C@@H]([C@H]2O[C@H](SC)[C@H](O)[C@@H](O)[C@H]2O)[C@@H](C)O)N(C)C1.Cl	SEM cells	121
CO/N=C(/C(=O)N[C@@H]1C(=O)N2C(C(=O)O)=C(Cn3ccc(=N)n3CCO)CS[C@H]12)c1csc(N)n1	SEM cells	90.5
CNC(=O)c1ccc(Nc2ncc(C(F)(F)F)c(NCc3nccnc3N(C)[S+](C)(=O)[O-])n2)cc1	SEM cells	105
C[C@H]1CN(C[C@@H](C)O1)CC(=O)NC2=CC=C3SC4=C(CC3=C2)C=CC=C4\C5=C\C(=O)\C=C(/O5)N6CCOCC6	SEM cells	108
COc1cc2nccc(Oc3ccc(NC(=O)C4(C(=O)Nc5ccc(F)cc5)CC4)cc3)c2cc1OC	SEM cells	90.6
CC(C)(C)OC(=O)CN(Cc1ccc(Cl)cc1)Cc1ccc([N+](=O)[O-])s1	SEM cells	111
COc1ccc(/C=C\c2cc(OC)c(OC)c(OC)c2)cc1O	SEM cells	26.8
CC1(C)[C@@H](O[C@H]2O[C@H](C(=O)O)[C@@H](O)[C@H](O)[C@H]2O[C@@H]2O[C@H](C(=O)O)[C@@H](O)[C@H](O)[C@H]2O)CC[C@]2(C)[C@H]3C(=O)C=C4[C@@H]5C[C@@](C)(C(=O)O)CC[C@]5(C)CC[C@@]4(C)[C@]3(C)CC[C@@H]12	SEM cells	113
CC[C@H]1OC(=O)[C@H](C)[C@@H](O[C@H]2C[C@@](C)(OC)[C@@H](O)[C@H](C)O2)[C@H](C)[C@@H](O[C@@H]2O[C@@H](C)C[C@H](N(C)C)[C@H]2O)[C@](C)(O)C[C@@H](C)C(=O)[C@H](C)[C@@H](O)[C@]1(C)O	SEM cells	80.8
COc1cc(N2CCC(O)CC2)ccc1Nc1cc(Nc2ccccc2[S+](=O)([O-])C(C)C)c2cc[nH]c2n1	SEM cells	71.5
O=C(O)[C@H](Cc1c[nH]c2ccccc12)N1C(=O)c2ccccc2C1=O	SEM cells	63.5

----------
Test system: NOMO1
assay text: cell viability relative to DMSO control; higher = less cytotoxic
experimental setup: HPLM + 10% dialyzed FBS; 48 h; 0.19 µM
Catalogue of cell viability readings, one per entry.

compound	cell viability, %
Cc1c[nH]c(/C=C2\C(=O)Nc3ccccc32)c1CCC(=O)O	102
C[C@@H](c1ncncc1F)[C@](O)(Cn1cncn1)c1ccc(F)cc1F	114
CN(C)CCOC(c1ccccc1)c1ccccc1	112
CCOC(=O)Nc1ccc(NCc2ccc(F)cc2)cc1N	110
C1Cc2[nH]nc(-c3nn[nH]n3)c2C1	145
Cc1nc(Nc2ncc(C(=O)Nc3c(C)cccc3Cl)s2)cc(N2CCN(CCO)CC2)n1	107
COC(=O)N1CCN(Cc2cccc(NC(=O)Nc3ccc(C)nc3)c2F)CC1	100
NC1CCC(N[C@@H]2C[C@H]2c2ccccc2)CC1 (stereo partly specified)	108
CN(C)Cc1ccc(-c2nc3cccc4c3n2CCNC4=O)cc1	107
C#CCN(C)[C@H](C)Cc1ccccc1	79.7
CC[C@H]1OC(=O)[C@H](C)[C@@H](O[C@H]2C[C@@](C)(OC)[C@@H](O)[C@H](C)O2)[C@H](C)[C@@H](O[C@@H]2O[C@@H](C)C[C@H](N(C)C)[C@H]2O)[C@](C)(O)C[C@@H](C)C(=O)[C@H](C)[C@@H](O)[C@]1(C)O	105
